meta.source: ChEMBL document CHEMBL1135353

In this section, each of the compounds is paired with its reported logP.
- Assay Overview: Partition coefficient (logP)
- Assay type: physicochemical
- Settings: octanol/water
Could you keep your reply to the number by itself?

* c1cc(-c2cnc3c(-c4ccncc4)cnn3c2)ccn1 | 2.5

GET /value?item= `COc1ccc(-c2cnc3c(-c4ccncc4)cnn3c2)cc1` &field=logP returns 4

---

Parameter IC50, tested on Vascular endothelial growth factor receptor 2 (Homo sapiens, UniProt P35968), listed per item.
Sequence (P35968 whole entry): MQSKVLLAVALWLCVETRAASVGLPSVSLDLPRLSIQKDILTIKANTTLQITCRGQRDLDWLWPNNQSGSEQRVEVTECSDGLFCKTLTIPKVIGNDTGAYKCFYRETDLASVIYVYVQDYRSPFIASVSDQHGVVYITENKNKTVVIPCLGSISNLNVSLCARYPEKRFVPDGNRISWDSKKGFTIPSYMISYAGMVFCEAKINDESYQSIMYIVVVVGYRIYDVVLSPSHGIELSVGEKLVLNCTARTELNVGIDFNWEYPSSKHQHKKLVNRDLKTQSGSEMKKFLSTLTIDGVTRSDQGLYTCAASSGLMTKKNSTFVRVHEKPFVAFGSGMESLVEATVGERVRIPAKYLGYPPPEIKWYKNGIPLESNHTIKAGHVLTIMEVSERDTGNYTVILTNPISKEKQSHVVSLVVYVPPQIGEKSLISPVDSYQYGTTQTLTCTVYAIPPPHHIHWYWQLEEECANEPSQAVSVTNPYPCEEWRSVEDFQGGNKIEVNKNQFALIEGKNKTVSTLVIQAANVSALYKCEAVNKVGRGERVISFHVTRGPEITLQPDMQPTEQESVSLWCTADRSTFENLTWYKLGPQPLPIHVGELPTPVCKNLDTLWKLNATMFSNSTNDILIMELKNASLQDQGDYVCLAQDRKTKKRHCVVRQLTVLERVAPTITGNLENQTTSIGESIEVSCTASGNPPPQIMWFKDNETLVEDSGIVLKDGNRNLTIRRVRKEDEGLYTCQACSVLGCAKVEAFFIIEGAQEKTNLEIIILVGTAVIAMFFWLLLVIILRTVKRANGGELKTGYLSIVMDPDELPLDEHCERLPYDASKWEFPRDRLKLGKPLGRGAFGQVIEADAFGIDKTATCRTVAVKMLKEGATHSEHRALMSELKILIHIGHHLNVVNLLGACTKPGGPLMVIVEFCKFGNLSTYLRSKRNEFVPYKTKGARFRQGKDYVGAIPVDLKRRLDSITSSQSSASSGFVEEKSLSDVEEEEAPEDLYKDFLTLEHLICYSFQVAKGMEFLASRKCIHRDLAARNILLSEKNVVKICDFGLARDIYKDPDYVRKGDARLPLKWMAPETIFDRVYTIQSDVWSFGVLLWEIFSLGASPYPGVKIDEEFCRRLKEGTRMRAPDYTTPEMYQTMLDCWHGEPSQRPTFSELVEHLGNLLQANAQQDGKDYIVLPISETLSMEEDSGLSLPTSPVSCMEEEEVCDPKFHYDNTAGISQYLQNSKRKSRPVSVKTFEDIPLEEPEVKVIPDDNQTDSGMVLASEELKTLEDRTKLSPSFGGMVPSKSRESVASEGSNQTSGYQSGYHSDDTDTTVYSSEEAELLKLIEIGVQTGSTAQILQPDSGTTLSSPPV
Provide the reading as a plain figure in nM.

// molecule `COc1ccc(-c2cnc3c(-c4cccnc4)cnn3c2)cc1` , assay Vascular endothelial growth factor receptor 2 (Homo sapiens, UniProt P35968), IC50 value: 41

Form: item `C1=C(c2cnn3cc(-c4ccncc4)cnc23)CCC1` ; test system Vascular endothelial growth factor receptor 2 (Homo sapiens, UniProt P35968); IC50: 28

Note to self: IC50 of `Cc1ccc(-c2cnc3c(-c4ccncc4)cnn3c2)cc1` with Vascular endothelial growth factor receptor 2 (Homo sapiens, UniProt P35968) was 62

Noted IC50 for `COc1cccc(-c2cnn3cc(-c4ccncc4)cnc23)c1` , tested on Vascular endothelial growth factor receptor 2 (Homo sapiens, UniProt P35968): 510

Param item: `Fc1ccc(-c2cnn3cc(-c4ccncc4)cnc23)cc1` ; param system: Vascular endothelial growth factor receptor 2 (Homo sapiens, UniProt P35968); output IC50: 63
